# Tested on: DLD1
# protocol_details: TCF/Wnt firefly luciferase reporter signal relative to plate median (fraction of plate median); higher = higher Wnt reporter signal
# test_settings: 5 µM; treatment time 24 h; reporter: 7TFP
measured_endpoint: TCF/Wnt firefly luciferase reporter signal
API doc: respond with a numeric literal and nothing else, no unit.

Consider the worked cases shown below.
CCC(=O)O[C@@H]1[C@@H](OC2C(C)/C=C/C(=O)OC(C)C(CO[C@@H]3O[C@H](C)[C@@H](OC(=O)CC)[C@@H](OC)[C@H]3OC)C3OC3/C=C/C(=O)C(C)(O)CC2C)O[C@@H](C)C[C@H]1OC (some centres undefined) :: 1.14
C[C@@H]1CC[C@@]2(OC1)O[C@H]1C[C@H]3[C@@H]4CC[C@@H]5C[C@@H](O)CC[C@]5(C)[C@H]4CC[C@]3(C)[C@H]1[C@@H]2C :: 0.956
CN(C)CCOc1ccc(/C(=C(/CCCl)c2ccccc2)c2ccccc2)cc1 :: 0.962
CC1=C(CC(=O)O)c2cc(F)ccc2/C1=C\c1ccc([S+](C)[O-])cc1 (centres undefined) :: 1.03
C[C@H]1O[C@H](O[C@H]2[C@H](O)[C@@H](O)[C@@H](O[C@H]3[C@H](O)[C@@H](O)C(O)O[C@@H]3CO)O[C@@H]2CO)[C@H](O)[C@@H](O)[C@@H]1N[C@H]1C=C(CO)[C@@H](O)[C@H](O)[C@H]1O (some centres undefined) :: 1.06

[Q] Can you look up the measured TCF/Wnt firefly luciferase reporter signal of CC(=O)O[C@H]1CC[C@@]2(C)[C@H](CC[C@@H]3[C@@H]2CC[C@]2(C)[C@@H]4[C@H](C[C@@H]32)O[C@]2(CC[C@@H](C)CO2)[C@H]4C)C1 for me?
[A] 0.836

[Q] What value of TCF/Wnt firefly luciferase reporter signal has been reported for the following molecule? CC[C@H](C)[C@H](N)C1=N[C@H](C(=O)N[C@@H](CC(C)C)C(=O)N[C@H](CCC(=O)O)C(=O)N[C@H](C(=O)N[C@H]2CCCCNC(=O)[C@H](CC(N)=O)NC(=O)[C@@H](CC(=O)O)NC(=O)[C@H](Cc3cnc[nH]3)NC(=O)[C@@H](Cc3ccccc3)NC(=O)[C@H]([C@@H](C)CC)NC(=O)[C@@H](CCCN)NC2=O)[C@@H](C)CC)CS1
[A] 1.03

====

# Test system: SW480
# protocol_details: TCF/Wnt firefly luciferase reporter signal relative to plate median (fraction of plate median); higher = higher Wnt reporter signal
# test_settings: 5 µM; treatment time 24 h; reporter: 7TFP
TCF/Wnt firefly luciferase reporter signal below 1 gives N; TCF/Wnt firefly luciferase reporter signal at or above it gives Y.

CCN(CC)C(=S)SSC(=S)N(CC)CC :: N
CCOC(=O)CCC(=O)O[C@H]1[C@H](O[C@@H]2[C@@H](C)[C@H](O[C@H]3C[C@@](C)(OC)[C@@H](O)[C@H](C)O3)[C@@H](C)C(=O)O[C@H](CC)[C@@](C)(O)[C@H](O)[C@@H](C)C(=O)[C@H](C)C[C@@]2(C)O)O[C@H](C)C[C@@H]1N(C)C :: N
Cc1cn[nH]c1 :: N
CC(C)(C)CC(C)(C)c1ccc(OCCOCC[N+](C)(C)Cc2ccccc2)cc1 :: N

[Q] Textbook exercise: given the entry C[C@@H]1O[C@H]2O[C@@H]3[C@@H](C)OC(c4ccc5c(c4O)C(=O)c4ccc(C[C@@](C)(O)CC(=O)O)c(O)c4C5=O)C[C@H]3O[C@H]2CC1=O (stereo not given in full) [Fridamycin D] , state whether its TCF/Wnt firefly luciferase reporter signal is greater than or equal to 1.
[A] Y

[Q] Hi, just wondering whether COc1cc2occ(-c3ccccc3)c(=O)c2c(OC)c1C shows TCF/Wnt firefly luciferase reporter signal of 1 or higher.
[A] Y

[Q] # bool: TCF/Wnt firefly luciferase reporter signal of Cc1occc(=O)c1O >= 1
[A] N

[Q] Is TCF/Wnt firefly luciferase reporter signal for C=C1C(=O)O[C@@H]2C[C@@]3(C)CCC[C@H](C)C3=C[C@H]12 at or above 1?
[A] Y

[Q] Can CC(C)(S)[C@@H](N)C(=O)O be said to have TCF/Wnt firefly luciferase reporter signal at or above 1?
[A] Y
